Each recorded value in this set is attributed to PubChem BioAssay AID1845199.

Task for the reader: assign each of the following compounds its reported viability, T/C.
System: 556581-035-R-J1 tumor spheroid viability, % test/control;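 also: spheroids exposed to compounds for 7 days before viability read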
Experiment: Anticancer human tumor 556581-035-R-J1 patient-derived ovarian carcinoma cell line growth inhibition
Conditions: second compound 0.003 µM; first compound 0.00949 µM; active compounds read low; spheroids with HUVEC and MSC
One number for each entry, in %.

>>> reported_measurement("CNCc1ccc(-c2cc(-c3nc(-c4ccc(S(=O)(=O)C(C)C)cc4)cnc3N)on2)cc1 + COc1cc2c(cc1O)CCNC21CSC2c3c(OC(C)=O)c(C)c4c(c3C(COC1=O)N1C(O)C3Cc5cc(C)c(OC)c(O)c5C(C21)N3C)OCO4")
0.74

### Prompt So what viability, T/C did Cc1sc2c(c1C)C(c1ccc(Cl)cc1)=NC(CC(=O)Nc1ccc(O)cc1)c1nnc(C)n1-2 (configuration not stated) + COc1cc2c(cc1O)CCNC21CSC2c3c(OC(C)=O)c(C)c4c(c3C(COC1=O)N1C(O)C3Cc5cc(C)c(OC)c(O)c5C(C21)N3C)OCO4 get with 556581-035-R-J1 tumor spheroid viability, % test/control?
### Response 0.52
